These measurements were taken from ChEMBL document CHEMBL4177577.

Assay: Cytotoxicity in human Friedreich's ataxia lymphocytes assessed as reduction in cell viability at 2.5 uM incubated for 24 hrs by Live/Dead cell viability assay
Format: cell-based
Details: friedreich's ataxia lymphocyte
reported-endpoint: Activity

{"columns": ["compound", "measured-value"],
 "data": [
  ["CN(C)c1ccc2nc3ccc(N(C)C)cc3[s+]c2c1.[Cl-] [METHYLENE BLUE ANHYDROUS]", "Toxic"],
  ["CCCCCCCCCCCCCCCN(C)c1ccc2nc3ccc(=O)cc-3sc2c1", "Non-Toxic"],
  ["CCCCCCCCCCCCCCCN(CCCC)c1ccc2nc3ccc(=O)cc-3sc2c1", "Non-Toxic"],
  ["CCCCCCCCCCN(CCCCCCCCCC)c1ccc2nc3ccc(=O)cc-3sc2c1", "Non-Toxic"],
  ["CCCCCCCCCCCCCCCN(CCCCCCCCCCCCCCC)c1ccc2nc3ccc(=O)cc-3sc2c1", "Non-Toxic"]
]}

====

Assay: Cytotoxicity in human Friedreich's ataxia lymphocytes assessed as reduction in cell viability at 2.5 uM incubated for 48 hrs by Live/Dead cell viability assay
Format: cell-based
Details: friedreich's ataxia lymphocyte

{"columns": ["molecule", "Activity"],
 "data": [
  ["CCCCCCCCCCCCCCCN(C)c1ccc2nc3ccc(=O)cc-3sc2c1", "Non-Toxic"],
  ["CCCCCCCCCCCCCCCN(CCCCCCCCCCCCCCC)c1ccc2nc3ccc(=O)cc-3sc2c1", "Non-Toxic"],
  ["CN(C)c1ccc2nc3ccc(N(C)C)cc3[s+]c2c1.[Cl-] [METHYLENE BLUE ANHYDROUS]", "Toxic"],
  ["CCCCCCCCCCN(CCCCCCCCCC)c1ccc2nc3ccc(=O)cc-3sc2c1", "Non-Toxic"],
  ["CCCCN(CCCC)c1ccc2nc3ccc(=O)cc-3sc2c1", "Toxic"],
  ["CCCCCCCCCCCCCCCN(CCCC)c1ccc2nc3ccc(=O)cc-3sc2c1", "Non-Toxic"]
]}
